# Tested on: T-Rex 293 cell line SC3 cells lacking increased expression of androgen receptor protein
# protocol: Cellular growth inhibition assay, T-Rex 293 SC3 cells without doxycycline (CellTiter-Glo, 72 hours)
# Type: cell-based
# test.parameters: 72 h, T-Rex 293 cell line SC3 cells not exposed to doxycycline (lacking increased androgen receptor expression)
# reported GI50; entries follow

{"columns": ["compound", "GI50"],
 "data": [
  ["COCC[C@@H]1N=C(c2ccc(C3CCC4(CCN(c5ccc(C(=O)N[C@H]6CC[C@H](Oc7ccc(C#N)c(Cl)c7)CC6)nn5)CC4)C3)cc2)c2c(sc(C)c2C)-n2c(C)nnc21 (some centres unmarked) [I-616]", "< 500 nM"],
  ["Cc1sc2c(c1C)C(c1ccc(C[C@@H]3CC[C@@]4(CCCN(c5ccc(C(=O)N[C@H]6CC[C@H](Oc7ccc(C#N)c(Cl)c7)CC6)nn5)C4)C3)cc1)=N[C@@H](Cc1ncco1)c1nnc(C)n1-2 [I-125]", "< 500 nM"],
  ["CC[C@@H]1N=C(c2ccc(N3CCC(CCc4ccc(C(=O)N[C@H]5CC[C@H](Oc6ccc(C#N)c(Cl)c6)CC5)nn4)CC3)cc2)c2c(sc(C)c2C)-n2c(C)nnc21 [I-613]", "1500 to 3000 nM"],
  ["Cc1sc2c(c1C)C(c1ccc(CCC[C@H]3CCCN(c4ccc(C(=O)N[C@H]5CC[C@H](Oc6ccc(C#N)c(Cl)c6)CC5)nn4)C3)cc1)=N[C@@H](Cc1ncco1)c1nnc(C)n1-2 [I-277]", "< 500 nM"],
  ["Cc1sc2c(c1C)C(c1ccc(C3CCC4(CC3)CCN(c3ccc(C(=O)N[C@H]5CC[C@H](Oc6ccc(C#N)c(Cl)c6)CC5)nn3)C4)nc1)=N[C@@H](C)c1nnc(C)n1-2 (some centres unmarked) [I-533]", "< 500 nM"],
  ["Cc1sc2c(c1C)C(c1ccc(C3CC(N4CCN(c5ccc(C(=O)N[C@H]6CC[C@H](Oc7ccc(C#N)c(Cl)c7)CC6)nn5)CC4)C3)cc1)=N[C@@H](Cc1ncco1)c1nnc(C)n1-2 (some centres unmarked) [I-437]", "< 500 nM"],
  ["Cc1sc2c(c1C)C(c1ccc(N3CCC4(CCCN(c5ccc(C(=O)N[C@H]6CC[C@H](Oc7ccc(C#N)c(Cl)c7)CC6)nn5)C4)CC3)nc1)=NC1(CC1)c1nnc(C)n1-2 [I-448]", "> 3000 nM"],
  ["Cc1sc2c(c1C)C(c1ccc(OC3CC4(CCN(c5ncc(C(=O)N[C@H]6CC[C@H](Oc7ccc(C#N)c(Cl)c7)CC6)cn5)CC4)C3)cc1)=N[C@@H](Cc1ncco1)c1nnc(C)n1-2 [I-84]", "< 500 nM"],
  ["Cc1sc2c(c1C)C(c1ccc(CC3CN([C@@H]4CCN(c5ccc(C(=O)N[C@H]6CC[C@H](Oc7ccc(C#N)c(Cl)c7)CC6)nn5)C4)C3)cc1)=N[C@@H](Cc1ncco1)c1nnc(C)n1-2 [I-115]", "< 500 nM"],
  ["Cc1sc2c(c1C)C(c1ccc(CN(C)C(=O)NCc3ccc(C(=O)N[C@H]4CC[C@H](Oc5ccc(C#N)c(Cl)c5)CC4)nn3)cc1)=N[C@@H](Cc1ncco1)c1nnc(C)n1-2 [I-318]", "> 3000 nM"],
  ["CCNC(=O)C[C@@H]1N=C(c2ccc(N3CC(OC4CN(c5ccc(C(=O)N[C@H]6CC[C@H](Oc7ccc(C#N)c(Cl)c7)CC6)nn5)C4)C3)cc2)c2c(sc(C)c2C)-n2c(C)nnc21 [I-70]", "500 to 1500 nM"],
  ["Cc1sc2c(c1C)C(c1ccc(C(=O)N3CCN(C(=O)c4ccc(C(=O)N[C@H]5CC[C@H](Oc6ccc(C#N)c(Cl)c6)CC5)nn4)CC3)cc1)=N[C@H](Cc1ncco1)c1nnc(C)n1-2 [I-239]", "> 3000 nM"],
  ["Cc1sc2c(c1C)C(c1ccc(CCC[C@H]3CCCN(c4ccc(C(=O)N[C@H]5CC[C@H](Oc6ccc(C#N)c(Cl)c6)CC5)nn4)C3)cc1)=N[C@@H](C)c1nnc(C)n1-2 [I-323]", "500 to 1500 nM"],
  ["Cc1sc2c(c1C)C(c1ccc(NC[C@H]3CC[C@H](CNc4ncc(C(=O)N[C@H]5CC[C@H](Oc6ccc(C#N)c(Cl)c6)CC5)cn4)CC3)cc1)=NC(Cc1ncco1)c1nnc(C)n1-2 (some centres unmarked) [I-807]", "< 500 nM"],
  ["Cc1sc2c(c1C)C(c1ccc(N3CCC(CCc4ccc(C(=O)N[C@H]5CC[C@H](Oc6ccc(C#N)c(Cl)c6)CC5)nn4)CC3)cc1)=N[C@@H](C)c1nnc(C)n1-2 [I-596]", "< 500 nM"],
  ["Cc1sc2c(c1C)C(c1ccc(N[C@H]3CCN(c4ncc(C(=O)N[C@H]5CC[C@H](Oc6ccc(C#N)c(Cl)c6)CC5)cn4)C[C@@H]3F)cc1)=NC(Cc1ncco1)c1nnc(C)n1-2 (some centres unmarked) [I-781]", "< 500 nM"],
  ["Cc1sc2c(c1C)C(c1ccc(C3C[C@H]3CC3CCCN(c4ccc(C(=O)N[C@H]5CC[C@H](Oc6ccc(C#N)c(Cl)c6)CC5)nn4)C3)cc1)=N[C@@H](Cc1ncco1)c1nnc(C)n1-2 (some centres unmarked) [I-204]", "< 500 nM"],
  ["Cc1sc2c(c1C)C(c1ccc(CC3CC(CC4CCN(c5ccc(C(=O)N[C@H]6CC[C@H](Oc7ccc(C#N)c(Cl)c7)CC6)nn5)CC4)C3)cc1)=N[C@@H](C)c1nnc(C)n1-2 (some centres unmarked) [I-628]", "> 3000 nM"],
  ["CCNC(=O)C[C@@H]1N=C(c2ccc(OCCOCCOCCOC3CCN(c4ccc(C(=O)N[C@H]5CC[C@H](Oc6ccc(C#N)c(Cl)c6)CC5)nn4)CC3)cc2)c2c(sc(C)c2C)-n2c(C)nnc21 [I-9]", "500 to 1500 nM"],
  ["Cc1sc2c(c1C)C(c1ccc(N3CC4(CCC(Cc5ccc(C(=O)N[C@H]6CC[C@H](Oc7ccc(C#N)c(Cl)c7)CC6)nn5)CC4)C3)cc1)=N[C@@H](Cc1ncco1)c1nnc(C)n1-2 [I-515]", "> 3000 nM"]
]}
